Entries and their PBM E-score values follow.
Target: Sut1 (UniProt P53032)
Sequence: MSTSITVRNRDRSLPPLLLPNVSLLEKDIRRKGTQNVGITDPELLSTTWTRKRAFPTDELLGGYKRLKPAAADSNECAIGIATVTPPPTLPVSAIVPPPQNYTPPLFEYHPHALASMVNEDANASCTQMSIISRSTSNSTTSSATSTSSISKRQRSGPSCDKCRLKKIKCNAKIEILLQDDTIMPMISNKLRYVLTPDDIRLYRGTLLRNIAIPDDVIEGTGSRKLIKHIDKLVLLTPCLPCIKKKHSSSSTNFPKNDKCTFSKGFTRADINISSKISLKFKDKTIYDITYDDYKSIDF
Test: PBM E-score (8-mer binding enrichment) (E-score (-0.5 to 0.5)); higher = stronger / more preferred TF binding
Settings: protein concentration: 200 nM; construct: GST-full length
Over roughly 33,000 sequences, “E-score (-0.5 to 0.5)” has its median near -0.017; the highest 2% begin near 0.3. What follows is part of a selection rich in the highest values, with near analogues and random picks from the rest.
readout: PBM E-score

CCTCGGAA :: 0.215
ACTCGGTC :: -0.072
AAGACTTC :: -0.196
GCTCAAGA :: -0.148
ATCCGAAT :: 0.32
TTCATGAA :: 0.00239
CACTATCA :: -0.0232
ACCCCGGT :: 0.191
GGAGTAGA :: 0.318
ACCCCGGC :: 0.183
CCTCGGGC :: -0.209
